These entries and their values trace back to patent US20220324835A1.

# measurement_target: Cbl-b (Homo sapiens)
# Sequence (Q13191 36-427): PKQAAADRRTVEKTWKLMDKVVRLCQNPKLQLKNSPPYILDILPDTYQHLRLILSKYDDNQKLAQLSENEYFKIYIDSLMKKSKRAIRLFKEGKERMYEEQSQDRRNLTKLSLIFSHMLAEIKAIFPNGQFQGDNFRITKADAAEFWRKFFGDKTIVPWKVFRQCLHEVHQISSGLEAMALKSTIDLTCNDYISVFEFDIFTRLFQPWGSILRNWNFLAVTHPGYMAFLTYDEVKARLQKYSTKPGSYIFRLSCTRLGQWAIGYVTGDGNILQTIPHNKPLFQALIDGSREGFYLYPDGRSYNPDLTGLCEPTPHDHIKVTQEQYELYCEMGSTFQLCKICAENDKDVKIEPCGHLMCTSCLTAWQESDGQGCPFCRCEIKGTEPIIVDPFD
# method_summary: Cbl-b activity assay (Cbl-b inhibition assay), TR-FRET of Cbl-b interaction with UbcH5B-Ub
# Type: biochemical
# measurement_context: assay buffer with 100 mM NaCl, 60 nM Src kinase; read-out: Cbl-b activity IC50
# Procedure: The ability of candidate compounds to inhibit Cbl-b activity was measured by monitoring the interaction of Cbl-b with UbcH5B-Ub in the presence of the candidate compound. Fluorescently labeled UbcH5B-Ub was prepared by conjugating ubiquitin (Ub), labeled at its N-terminus with Bodipy-Fluorescein, to UbcH5B, an E2 enzyme, harboring a cysteine to lysine mutation at position 85. […]
readout_name: IC50

Solved cases below.
{"molecule": "CN1CC2CCC1CN2c1cc2c(c(C(F)(F)F)c1)CN(c1cccc([C@@](C)(F)C(F)(F)c3nncn3C)c1)C2=O (stereo partly shown)", "result": "< 100 nM"}
{"molecule": "C[C@H](Cc1nncn1C)c1cc(NC2CCC2)nc(N2Cc3c(cccc3C(F)(F)F)C2=O)c1", "result": "100 to 300 nM"}
{"molecule": "CNc1cccc(C(=O)Nc2cccc([C@H](C)Sc3nncn3C)c2)c1", "result": "3000 to 10000 nM"}

Test system Cbl-b (Homo sapiens); read-out IC50; what value for `C[C@H](Cc1nncn1C)c1cccc(N2Cc3c(cc(C(C)(C)O)cc3C(F)(F)F)C2=O)c1` ? < 100 nM

Test system Cbl-b (Homo sapiens); read-out IC50; what value for `Cn1cnnc1CC1(c2cccc(N3Cc4c(cc(CN5C[C@@H](F)[C@@H](F)C5)cc4C(F)(F)F)C3=O)c2)COC1` ? < 100 nM

Test system Cbl-b (Homo sapiens); read-out IC50; what value for `Cn1cnnc1CC1(c2cccc(N3Cc4c(cc(CN5CCC[C@@H](F)C5)cc4C(F)(F)F)C3=O)c2)COC1` ? < 100 nM

Test system Cbl-b (Homo sapiens); read-out IC50; what value for `CC[C@H](c1cc2c(c(C(F)(F)F)c1)CN(c1cccc(C3(Cc4nncn4C)COC3)c1)C2=O)N1CC[C@H](F)C1` ? < 100 nM
